Value source: ChEMBL document CHEMBL1156829

// reported CC50 per item
- Protocol Summary: NOVARTIS: Cytotoxicity against human hepatocellular carcinoma cell line (Huh7)
- Format: toxicity, cell-based, Huh-7
- Experimental Parameters: Huh7 cells (hepatocellular carcinoma cell line)

For O=C(Nc1ccccc1C(F)(F)F)N1CCC(N2CCCCC2)CC1 , what is its reported CC50? > 100 µM

Then this compound: CCOC(=O)C1=C(C)NC2=C(C(=O)C(C(=O)OCC)C(c3ccccc3OC)C2)C1c1cc(OC)c(OC)c(OC)c1 (centres undefined) > 100 µM

Then this compound: CCOc1cccc2c1N(C(=O)c1cccc([N+](=O)[O-])c1)C(C)(C)C(=S)C2=C1SC(C(=O)OC)=C(C(=O)OC)S1 > 10 µM

Then this compound: COc1cc(NC2=CC(=O)C(=O)c3ccccc32)c(OC)cc1Cl 11.2 µM

Then this compound: CCOC(=O)C1=C(C)N=c2sc(=Cc3cc(Cl)ccc3O)c(=O)n2C1c1ccc(OC)c(OC)c1 (centres undefined) > 100 µM

Then this compound: O=C1CC(c2ccccc2)CC2=C1C(c1cc(F)ccc1F)Nc1ccccc1N2 (centres undefined) > 100 µM

Then this compound: O=c1c2ccccc2nc(C=Cc2ccc([N+](=O)[O-])o2)n1-c1ccc(Br)cc1 > 100 µM
